system: SEM cells; assay: selective drug sensitivity score (sDSS, relative to normal bone marrow) (sDSS (score)); higher = more potent and effective on the cell line relative to normal bone marrow cells; settings: 72 h;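 further: ALL cell lines in 384-well plates, five doses spanning 10,000-fold, each plate scaled between vehicle and 100 µmol/L benzalkonium chloride controls, sDSS an adapted area-under-curve metric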
Class t: selective drug sensitivity score at least 0. Class f: selective drug sensitivity score below 0.

Q. Assess whether reported selective drug sensitivity score for CC(C)c1c(C(=O)Nc2ccccc2)c(-c2ccccc2)c(-c2ccc(F)cc2)n1CC[C@@H](O)C[C@@H](O)CC(=O)O [Atorvastatin] (top concentration 10000 nM) sits at 0 or higher.
A. t

Q. Now consider Nc1ncn([C@@H]2O[C@H](CO)[C@@H](O)[C@H]2O)c(=O)n1 [Azacitidine] (top concentration 10000 nM) and answer again.
A. t

Q. Same question, NC(=O)c1cccc(-c2cccc(OC(=O)NC3CCCCC3)c2)c1 [URB597] (top concentration 1000 nM) this time
A. f

Q. Then what about the compound Cc1cc(-c2ncc(CC(=O)Nc3ccc(-c4cnccn4)cn3)cc2C)ccn1 [NVP-LGK974] (top concentration 10000 nM) ?
A. t

Q. Cool, now CCc1cnn2c(NCc3ccc[n+]([O-])c3)cc(N3CCCC[C@H]3CCO)nc12 [Dinaciclib] (top concentration 1000 nM)
A. f

----------
Task for the reader: assign each of the following compounds its reported selective drug sensitivity score.
system: DND-41; assay: selective drug sensitivity score (sDSS, relative to normal bone marrow) (sDSS (score)); higher = more potent and effective on the cell line relative to normal bone marrow cells; details: 72 h
Simply state the number, no unit and no words.

Q. Suppose we examine the compound Oc1nc(-c2ccc(C(F)(F)F)cc2)nc2c1CSCC2 [XAV939] (top concentration 10000 nM) ; what selective drug sensitivity score value has been reported?
A. -0.14

Q. For CCc1cnn2c(NCc3ccc[n+]([O-])c3)cc(N3CCCC[C@H]3CCO)nc12 [Dinaciclib] (top concentration 1000 nM) then?
A. -0.14

Q. Also, NC(=O)c1cccc(-c2cccc(OC(=O)NC3CCCCC3)c2)c1 [URB597] (top concentration 1000 nM) please.
A. -0.26

Q. One more compound: Cc1cn(-c2cc(NC(=O)c3ccc(C)c(Nc4nccc(-c5cnccn5)n4)c3)cc(C(F)(F)F)c2)cn1 [Radotinib] (top concentration 10000 nM)
A. 13.8

Q. Note, next up: CCn1c(C(=O)N(C2CC2)C2CC2)cc2c3c(ncn3C)c(Nc3cc(C)n(C)n3)nc21 (top concentration 10000 nM)
A. -3.86

Q. Same read-out for C[C@@H](Oc1cc(-c2cnn(C3CCNCC3)c2)cnc1N)c1c(Cl)ccc(F)c1Cl [Crizotinib] (top concentration 1000 nM) ?
A. -0.54

Q. // query: Cc1cnc(NC(=O)Nc2cc(Br)c(C)cc2OC[C@@H]2CNCCO2)cn1 [Rabusertib] (top concentration 1000 nM)
A. 6.16

----------
system: COG-LL-402h; assay: selective drug sensitivity score (sDSS, relative to normal bone marrow) (sDSS (score)); higher = more potent and effective on the cell line relative to normal bone marrow cells; details: 72 h
quantity_kind: selective drug sensitivity score
# answer = number (no unit)

Q. Consider the compound shown here: O=c1[nH]c(C2CCCN2)nc2c1oc1ccc(Cl)cc12 (centres undefined) (top concentration 10000 nM) What is its recorded selective drug sensitivity score?
A. -1.5

Q. And the next one, CC1(COc2ccc3c(c2)ncn3-c2ccc3cccc(N4CCC(N)CC4)c3n2)COC1 [Crenolanib] (top concentration 10000 nM) ?
A. 0.68

Q. Also Nc1ncn([C@@H]2O[C@H](CO)[C@@H](O)[C@H]2O)c(=O)n1 [Azacitidine] (top concentration 10000 nM) ?
A. 1.74

Q. Try this compound next: CCc1c2c(nc3ccc(O)cc13)-c1cc3c(c(=O)n1C2)COC(=O)[C@]3(O)CC [SN-38] (top concentration 10000 nM)
A. 21.1
